The following binders are shown together with reported MPL-mutCALR AUC values.
Biological target: T1, human mutCALR on BaF3 cells stably expressing human MPL and human mutCALR (MPL-mutCALR cells) (human)
T1 construct: also called mutant calreticulin
T1 chain: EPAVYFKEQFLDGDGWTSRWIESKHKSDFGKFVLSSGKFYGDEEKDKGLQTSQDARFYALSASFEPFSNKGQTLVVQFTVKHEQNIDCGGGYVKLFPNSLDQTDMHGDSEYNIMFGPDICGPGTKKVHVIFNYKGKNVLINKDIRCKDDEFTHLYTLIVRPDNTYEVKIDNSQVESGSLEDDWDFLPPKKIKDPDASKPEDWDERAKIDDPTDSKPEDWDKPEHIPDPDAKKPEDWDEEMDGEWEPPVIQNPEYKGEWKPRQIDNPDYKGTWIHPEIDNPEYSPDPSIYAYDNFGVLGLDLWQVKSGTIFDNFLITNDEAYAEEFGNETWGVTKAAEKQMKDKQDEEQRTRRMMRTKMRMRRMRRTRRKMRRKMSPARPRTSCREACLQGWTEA
Assay: flow cytometry, BaF3 MPL-mutCALR cells

binder | MPL-mutCALR AUC
anti-mutCALR antibody clone 21 (antibody, human IgG1, lambda, V domains shown, human IgG1) VH: EVQLVQSGAEVKKPGASVKVSCEVSGYTLTELSMQWVRQAPGKGLEWMGGFDPDDGETMYAEKFQGRLTVTEDTSTDTVYMELRSLTSEDTALYFCATSPGYDFFDYWGQGTLVTVSS VL: SYVLTQPPSVSVAPGQTARVSCGGNNIGSKSVNWYRQKPGQAPVLVIYDDSDRPSGIPERFSGSNSGNTATLTISRVEAGDEADYYCQVWDSSNDLLIFGGGTKLTVLG | 70100
anti-mutCALR antibody clone 45 (antibody, human IgG1, lambda, V domains shown, human IgG1) VH: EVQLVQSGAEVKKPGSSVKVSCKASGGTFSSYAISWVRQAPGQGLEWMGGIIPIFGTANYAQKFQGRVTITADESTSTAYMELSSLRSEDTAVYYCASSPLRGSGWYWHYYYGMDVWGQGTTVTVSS VL: SYVLTQPLSVSVAPGQTARITCGGNNIGRKSVHWYQQKPGQAPVLVIYRDSNRPSGIPERFSGSNSGNTATLTISRAQAGDEADYYCQVWDSSTVVFGGGTKLTVLG | 29800
anti-mutCALR antibody clone 68 (antibody, human IgG1, lambda, N297A, V domains shown) VH: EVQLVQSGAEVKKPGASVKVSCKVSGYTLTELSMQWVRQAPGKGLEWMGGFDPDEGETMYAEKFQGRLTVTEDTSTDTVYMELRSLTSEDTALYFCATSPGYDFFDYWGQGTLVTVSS VL: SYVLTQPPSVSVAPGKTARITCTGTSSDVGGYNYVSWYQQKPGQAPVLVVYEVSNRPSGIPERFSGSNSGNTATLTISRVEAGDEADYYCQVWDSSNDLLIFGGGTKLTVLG | 68700
